target: Metabotropic glutamate receptor 8 (Rattus norvegicus); assay: mGluR8 Gi/Go-coupled signaling modulation – cell-based, rat, thallium flux, HTS, primary screen (AID 488969); conditions: HEK293 rat mGluR8, GIRK thallium flux, FluoZin2; at 10 µM; stronger effect = higher value; submaximal glutamate (EC20) added with thallium
Over roughly 110,000 compounds, “z-score” has its median near -0.1; the highest 2% begin near 2. The sample as a whole holds a higher share of the highest values than the screen did.
Kindly supply the reported z-score values for the records listed here.
Respond with the number and no other words.

Field: z-score (Metabotropic glutamate receptor 8 (Rattus norvegicus)). Entry: C=CCNC(=S)NNC(=O)c1ccc(OCCCC)cc1
-0.162

Return z-score measured with Metabotropic glutamate receptor 8 (Rattus norvegicus) given this compound: COc1ccccc1/C=C/C=N\N1CCN(Cc2ccccc2Cl)CC1
5.52

Observed z-score on Metabotropic glutamate receptor 8 (Rattus norvegicus) for CCCOc1ccc(C(=O)NNC(=S)NC(=O)CC)cc1 , please.
3.01

For Metabotropic glutamate receptor 8 (Rattus norvegicus), provide z-score of CCCOc1ccc(C(=O)NNC(=S)NC(C)=O)cc1 please.
0.435

z-score of O=C(N/N=C/c1ccco1)c1ccncc1 on Metabotropic glutamate receptor 8 (Rattus norvegicus)?
0.0764

Please tell me: z-score of Cc1noc(C)c1C(=O)OC(C(=O)NC1CCCC1)c1ccc(F)cc1 (centres undefined) , system Metabotropic glutamate receptor 8 (Rattus norvegicus)?
0.659

# get_value(readout= z-score, system= Metabotropic glutamate receptor 8 (Rattus norvegicus)) for CC1(C)Cc2ccccc2C(/C(=N\Nc2cccc(Cl)c2)C(N)=O)=N1
3.23

Param readout= z-score; system= Metabotropic glutamate receptor 8 (Rattus norvegicus); entry= Cc1cccc(NC(=S)N/N=C2/CCCCc3ccccc32)c1 ; returns value.
0.797

Give recorded z-score with Metabotropic glutamate receptor 8 (Rattus norvegicus) for the following compound: COc1ccc(N/N=C(/C(N)=O)C2=NC(C)(C)Cc3ccccc32)cc1
-0.381

Please tell me: z-score of COC(=O)N/N=C1\CCCc2ccccc21 , system Metabotropic glutamate receptor 8 (Rattus norvegicus)?
-0.137

What is its z-score for Metabotropic glutamate receptor 8 (Rattus norvegicus)? Entry: Cc1c(Cl)cccc1NC(=S)N1CCN(Cc2ccc3c(c2)OCO3)CC1
0.334

Write down the reported z-score of Cc1ccc2c(c1)nc(NCCO)n2C , test system: Metabotropic glutamate receptor 8 (Rattus norvegicus).
-0.14

Notebook entry, Metabotropic glutamate receptor 8 (Rattus norvegicus) assay: z-score of CCCCNC(=S)N/N=C1\CCCCc2ccccc21 = ?
2.17

Given the entry Cc1ccc(N=Nc2c(C)[nH][nH]c2=O)c(C)c1 , what z-score was observed with Metabotropic glutamate receptor 8 (Rattus norvegicus)?
0.772

Under Metabotropic glutamate receptor 8 (Rattus norvegicus): z-score value of CCC(CC)C(=O)N1CCN(Cc2ccc3c(c2)OCO3)CC1 ?
-0.17

What is its z-score for Metabotropic glutamate receptor 8 (Rattus norvegicus)? Entry: O=C(N/N=C/c1ccc([N+](=O)[O-])s1)c1ccncc1
-0.428

So what z-score did Cc1ccc(NC(=S)N2CCN(Cc3ccc4c(c3)OCO4)CC2)c(C)c1 get with Metabotropic glutamate receptor 8 (Rattus norvegicus)?
-0.407

Give z-score (Metabotropic glutamate receptor 8 (Rattus norvegicus)) of the following compound: COc1ccc(CCN2C(=O)C(O)=C(C(C)=O)C2c2ccccc2OC)cc1OC (centres undefined)
-0.511

# query: z-score | item Cc1ccccc1NC(=O)Nc1ccccc1Br | system: Metabotropic glutamate receptor 8 (Rattus norvegicus)
-0.375

Record Cc1cccc(C(=O)N2CCN(Cc3ccc4c(c3)OCO4)CC2)c1 : what is its z-score with Metabotropic glutamate receptor 8 (Rattus norvegicus)?
-0.0762

Give the reported z-score for O=C(N/N=C/c1ccc([N+](=O)[O-])s1)c1ccccc1Br (system: Metabotropic glutamate receptor 8 (Rattus norvegicus)).
-0.301

Item O=C(Cc1ccccc1)N/N=C/c1ccc([N+](=O)[O-])s1 with Metabotropic glutamate receptor 8 (Rattus norvegicus) - z-score?
0.543

What measured z-score is associated with COc1ccc(N(CC(O)CN2C(=O)NC(C)(C)C2=O)S(=O)(=O)c2ccccc2)cc1 (centres undefined) on Metabotropic glutamate receptor 8 (Rattus norvegicus)?
-0.294

Tell me reported z-score for Cc1ccccc1C(=O)N/N=C/c1ccc([N+](=O)[O-])s1 , tested with Metabotropic glutamate receptor 8 (Rattus norvegicus).
2.95

Lab note: need z-score with Metabotropic glutamate receptor 8 (Rattus norvegicus) for entry COc1ccc(NC(=O)CCC(=O)N/N=C/c2ccc([N+](=O)[O-])s2)cc1 , please look it up.
-0.189

Record lookup: for Metabotropic glutamate receptor 8 (Rattus norvegicus), what z-score belongs to O=C(Nc1ccccc1C(=O)N/N=C/c1ccco1)c1ccccc1Cl ?
0.924

Test system Metabotropic glutamate receptor 8 (Rattus norvegicus); read-out z-score; what value for COc1ccccc1/C=C/C=N/N1CCN(Cc2ccc(Cl)cc2)CC1 ?
-0.494

Please tell me: z-score of O=C(NC(=S)N1CCN(Cc2ccc3c(c2)OCO3)CC1)c1ccc(Cl)cc1 , system Metabotropic glutamate receptor 8 (Rattus norvegicus)?
15.2

Find the measured z-score: item N#C/C(=C/c1ccc(N2CCCC2)c([N+](=O)[O-])c1)c1nc2ccccc2[nH]1 , target or system Metabotropic glutamate receptor 8 (Rattus norvegicus).
0.0678

// fetch Metabotropic glutamate receptor 8 (Rattus norvegicus) z-score for Cn1c(=O)c2c(ncn2CC(=O)Nc2ccccc2)n(C)c1=O
0.318

GET /values?readout=z-score&system=Metabotropic glutamate receptor 8 (Rattus norvegicus)&item= C=C(C)CNC(=S)N/N=C1\CCCCc2ccccc21
3.15

Provide value of z-score for this record tested with Metabotropic glutamate receptor 8 (Rattus norvegicus): COc1cccc(NC(=S)N/N=C2\CC(C)(C)Oc3ccc(O)cc32)c1
-0.0142

Kindly state the measured z-score obtained for CCNC(=S)N/N=C1\CCCCc2ccccc21 with Metabotropic glutamate receptor 8 (Rattus norvegicus).
1.57

Notebook entry, Metabotropic glutamate receptor 8 (Rattus norvegicus) assay: z-score of Cc1ccc(C(=O)N/N=C/c2ccc([N+](=O)[O-])s2)cc1 = ?
-0.176

GET /values?readout=z-score&system=Metabotropic glutamate receptor 8 (Rattus norvegicus)&item= CC1=NN(C(N)=S)C(=O)C1N=Nc1c(C)cc(C)cc1C (centres undefined)
0.119

// map CCN(CC)c1ccc(C(=O)NC(=S)N2CCN(Cc3ccc4c(c3)OCO4)CC2)cc1 to recorded z-score (system: Metabotropic glutamate receptor 8 (Rattus norvegicus))
10

Param readout= z-score; system= Metabotropic glutamate receptor 8 (Rattus norvegicus); entry= O=C(Nc1ccccc1C(=O)N/N=C/c1ccco1)c1ccccc1 ; returns value.
3.37

Reported z-score for Metabotropic glutamate receptor 8 (Rattus norvegicus), given Cc1c(C(=O)OC(C)C)sc(NC(=O)C2CCCO2)c1C(=O)OC(C)C (centres undefined) ?
-0.0386

For the record O=C(Nc1ccccc1C(=O)N/N=C/c1ccco1)c1ccc(Cl)cc1 , what value of z-score is listed for Metabotropic glutamate receptor 8 (Rattus norvegicus)?
0.162

====

Could you please report measured z-score for the items listed next?
molecular target: Metabotropic glutamate receptor 8 (Rattus norvegicus); assay: mGluR8 Gi/Go-coupled signaling modulation – cell-based, rat, thallium flux, HTS, primary screen (AID 488969); details: HEK293 rat mGluR8, GIRK (G protein-gated inwardly rectifying potassium channel) thallium flux, FluoZin2; at 10 µM; stronger effect = higher value; submaximal glutamate (EC20) added with thallium
Over roughly 110,000 compounds, “z-score” has its median near -0.1; the highest 2% begin near 2. Shown is part of a subset that was picked to be rich in the highest values.
# respond with the number and nothing more

# input molecule: O=c1[nH]cnc2c1sc1nc(-c3ccccc3)c3c(c12)CCCC3 ; wanted: its z-score
0.204

What z-score value was documented for this molecule, S=c1[nH]nc(COc2ccc(Cl)cc2)n1C1CCCCC1 ?
1.31

Item under review: CN(C)C(=O)N1CCCC(C(=O)NCc2ccccc2)C1 (stereo not drawn) . Reported z-score?
-0.341

Need z-score of Cc1cc(Cl)ccc1OCc1n[nH]c(=S)n1C1CCCCC1 , thanks.
7.67

Which measured z-score value corresponds to COC(=O)c1cc2ccc(OC)c(OC)c2c(=O)s1 ?
0.0942

Dear colleague, I am looking for the recorded z-score of the following molecule: COc1cccc(-c2cc(C(=O)NC3CCCC3)no2)c1
5.04

Would you mind telling me what z-score value was observed for CNC(=O)C1CC(=O)N(c2ccc(C)cc2)C1 (stereo not drawn) ?
0.338

Name the recorded z-score for COc1ccc2cc(C(=O)Nc3ccccc3)sc(=O)c2c1OC .
4.25

I have this molecule here, CCCn1c(O)c(CN2CCCCC2)c(C)c(C#N)c1=O , and I need its recorded z-score.
-0.183

I am curious: what z-score value has been reported for CC1CCN(CCCNC(=O)c2ccc(CSCc3cccc(Cl)c3)o2)CC1 ?
0.509

I am curious: what z-score value has been reported for S=c1nc[nH]c2c1sc1nc(-c3ccccc3)c3c(c12)CCCC3 ?
7.83

Fill in: z-score of CN(C)C(=O)c1ccc(Oc2ccc(C(=O)N(C)C)cc2)cc1 is ___
2.6

# lookup: z-score of COc1ncnc2c1sc1nc(-c3ccccc3)c3c(c12)CCCC3
-0.0945
